target: VEGF (as used in the VEGFR competition ELISA); test: competition ELISA against hVEGR1, EC50 ratio to reference Luc
Sequence (P15692 whole entry): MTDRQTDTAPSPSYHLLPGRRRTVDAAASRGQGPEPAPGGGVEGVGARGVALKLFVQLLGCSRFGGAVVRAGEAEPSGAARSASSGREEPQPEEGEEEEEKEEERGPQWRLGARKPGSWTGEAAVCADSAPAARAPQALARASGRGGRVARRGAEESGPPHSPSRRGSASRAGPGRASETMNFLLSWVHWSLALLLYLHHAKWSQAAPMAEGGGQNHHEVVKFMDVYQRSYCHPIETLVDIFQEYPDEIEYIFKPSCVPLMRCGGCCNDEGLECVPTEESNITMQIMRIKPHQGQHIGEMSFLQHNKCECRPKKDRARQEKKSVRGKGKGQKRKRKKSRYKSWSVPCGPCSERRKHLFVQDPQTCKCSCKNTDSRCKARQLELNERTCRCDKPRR
ENDPOINT: Rel. activity hVEGR1 comp. ELISA (EC50Luc[nM]/EC50test[nM]) (ratio)

# BINDER, TEST_RESULT
measured = [
    ("578-min (scFv) EIVMTQSPSTLSASVGDRVIITCQASEIIHSWLAWYQQKPGKAPKLLIYLASTLASGVPSRFSGSGSGAEFTLTISSLQPDDFATYYCQNVYLASTNGANFGQGTKLTVLGGGGGSGGGGSGGGGSGGGGSEVQLVESGGGLVQPGGSLRLSCAASGFSLTDYYYMTWVRQAPGKGLEWVSFIDPDDDPYYATWAKGRFTISRDNSKNTLYLQMNSLRAEDTAVYYCAKGDHNSGWGLDIWGQGTLVTVSS", 4.8),
    ("511-max (scFv) EIVMTQSPSTLSASVGDRVIITCQASQSINIWLSWYQQKPGKAPKLLIYRASTLASGVPSRFSGSGSGTEFTLTISSLQPDDFATYYCQANYAYSAGYGAAFGQGTKLTVLGGGGGSGGGGSGGGGSGGGGSEVQLVESGGGLVQPGGSLRLSCTVSGFSLNTYYMNWVRQAPGKGLEWVGIIAPDDTTYYASWAKSRSTISRDTSKNTVYLQMNSLRAEDTAVYYCARSGDTTAWGADIWGQGTLVTVSS", 8),
    ("511-min (scFv, V domains shown) VH: EVQLVESGGGLVQPGGSLRLSCAASGFSLNTYYMNWVRQAPGKGLEWVSIIAPDDTTYYASWAKSRFTISRDNSKNTLYLQMNSLRAEDTAVYYCAKSGDTTAWGADIWGQGTLVTVSS VL: EIVMTQSPSTLSASVGDRVIITCQASQSINIWCSWYQQKPGKAPKLLIYRASTLASGVPSRFSGSGSGAEFTLTISSLQPDDFATYYCQANYAYSAGYGAAFGQGTKLTVL", 0.7),
]
